Experiment: growth modulation of vineyard yeast isolate – strain RM11-1a, OD600, basal, 24 h, primary screen (AID 1177);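 further: cultures grown under basal conditions with no added stressor; test concentration not given here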
Settings: S. cerevisiae RM11-1a growth, OD600, 24 h; higher = more signal, called active from +8 up or from −8 down
observable: z-score
Returns: the value as a bare number; no unit string appended.

Record excerpt, results attached:
{"columns": ["compound", "observed.result"],
 "data": [
  ["CN1C(=O)C2C(C1=O)C1C=C(c3ccc(CO)cc3)C2C(C2CC2)N1Cc1cc2c(cc1Br)OCO2 (stereo unspecified)", -0.889],
  ["C[N+](C)(C)CCCC[C@@H]1NC(=O)[C@@H]2C[C@H](C(=O)NCCCCCCNC(=O)CS)[C@H](c3cccc(OCCO)c3)N2C1=O", -0.18],
  ["CO[C@H]1O[C@H](CO)[C@@H](OC(=O)Nc2cccc(F)c2)[C@H](OC(=O)Nc2ccccc2-c2ccccc2)[C@@H]1OC(=O)Nc1ccccc1-c1ccccc1", 2.42],
  ["C=CCNC(=O)[C@@H]1[C@H]2C(=O)O[C@H](c3ccccc3)[C@H](c3ccccc3)N2[C@H](c2ccccc2OCCO)[C@@]12C(=O)N(C(=O)OCCOC)c1ccc(C#CCC(C(=O)OC)C(=O)OC)cc12", 1.62],
  ["COc1ccc(C(O)C2C=CC3C(=O)N(c4ccccc4)C(=O)C3N2Nc2ccccc2)c2ccccc12 (stereo unspecified)", 0.163]
]}

Please examine the following record next.
z-score reading for COCCOC(=O)N1C(=O)[C@@]2(c3cc(C#CC4=CCCCC4)ccc31)[C@H](c1ccc(OCCO)cc1)N1[C@H](c3ccccc3)[C@H](c3ccccc3)OC(=O)[C@H]1[C@@H]2C(=O)Nc1nc2ccccc2s1 : 2.68

----------
Readings of composite z-score for the listed compounds
Assay: probe aDKK1 binding to arrayed compounds – biochemical, biotinylated probe, 635/667 nm fluorescence, primary screen (AID 1099);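 further: score merges 667nm spot fluorescence with signal to noise across triplicate slides; reference of the scale not given here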
Conditions: small-molecule microarray, higher = more signal
Quick one: just the number, no unit, thanks!

Consider the following illustrative entries.
{"columns": ["compound", "composite z-score"],
 "data": [
  ["C[C@]1(C(=O)NCC(F)(F)F)c2ccccc2C(=O)N(Cc2cc(F)cc(C(F)(F)F)c2)[C@H]1c1ccc(CO)cc1", 1.64],
  ["COc1ccc([Si](C)(C)[C@@H]2[C@@H](CCO)O[C@]3(C(=O)N(Cc4cccc(N(C=O)c5ccccc5)c4)c4ccccc43)[C@H]2C)cc1", 0.0396],
  ["COCCCNC(=O)[C@@]1(Sc2ccc(C)cc2)CC(=O)N(Cc2ccccc2)[C@@H]1c1ccc(CO)cc1", 0.0112]
]}

Lab book: composite z-score of CC1CC/C=C\[C@H]2OC34C=CCN(c5ccc6ccccc6c5)C(=O)[C@H]3N(CCCCCO)C(=O)[C@@H]4C2C(=O)O1 (some centres not stated) noted as 0.207

Value of composite z-score reported for the compound C=C(CCCC)C(=O)CC[C@@H](OC(=O)c1ccccc1-c1ccccc1C(=O)O)c1ccc(CO)o1 is -0.0075

So, COCCCNC(=O)[C@@]1(Cc2ccccc2I)c2ccccc2C(=O)N(Cc2ccccc2)[C@H]1c1ccc(CO)cc1 ? Its composite z-score was -0.113

The reported composite z-score of the compound O=C1OCCC/C=C\[C@H]2OC34C=CCN(CCN5CCOCC5)C(=O)[C@H]3N(CCO)C(=O)[C@@H]4C12 (some centres not stated) was -0.214
